System: HL-60
methodDescription: NCI tumour cell line growth inhibition, 48 h
Active and inactive are the calls of the source. No stated cut-off is given here; in the data, active = GI50 up to about 1.1 µM and inactive = higher.
propertyLabel: GI50

Recorded GI50 (compound COC(=O)CC(C(C(=O)OCc1ccccc1)C(C)O)N1C(=O)OC(c2ccccc2)C1c1ccccc1 (configuration not stated) ): > 100 µM (inactive)

Recorded GI50 (compound `COc1ccc(-c2nc(SCC(=O)N/N=C/c3ccc(O)c(OC)c3)[nH]c2-c2ccc(OC)cc2)cc1` ): 11.2 µM (inactive)

Recorded GI50 (compound `O=C(O)c1cc2ccc(Cl)cc2c(O)c1C1=CCCCC1` ): 30.8 µM (inactive)

Recorded GI50 (compound `CCOC(=O)N1CCC(=C2c3ccc(Cl)cc3CCc3cccnc32)CC1` ): 6.12 µM (inactive)

Recorded GI50 (compound `CCCCCCn1c(SC)nc(COC(=O)NC)c1COC(=O)NC` ): 19.6 µM (inactive)

Recorded GI50 (compound `O=C1NCC2(CCNCC2)N1c1ccccc1` ): > 100 µM (inactive)

Recorded GI50 (compound CC(C(O)c1ccccc1)C(O)(C(F)(F)F)C(F)(F)F (configuration not stated) ): > 100 µM (inactive)

====

Test system: CAKI-1
methodDescription: NCI tumour cell line growth inhibition, 48 h
Active and inactive are the calls of the source. Rule as the data show it: active = GI50 up to about 1.1 µM and inactive = higher.
propertyLabel: GI50

Recorded GI50 (compound CCOC(=O)C1=C(C)N(NC(N)=O)C(C)(O)C12CCOC2=O (centres undefined) ): > 100 µM (inactive)

Recorded GI50 (compound `O=C(CCc1cccc(O)c1)NCCc1cccc(OCc2ccccc2)c1` ): 26.9 µM (inactive)

Recorded GI50 (compound COc1cc(O)c(C(=O)/C=C/c2ccc(O)cc2)cc1Oc1ccc(C(=O)/C=C/c2ccc(O)cc2)c(O)c1 [RHUSCHALCONE IV] ): 3.5 µM (inactive)

Recorded GI50 (compound Cc1cc(Cl)cc2c1NC(=O)C2(O)C(C)C(=O)c1ccc(Cl)cc1 (centres undefined) ): > 92.5 µM (inactive)

Recorded GI50 (compound `O=C1C(Cl)=C(N2C(=O)CCCC2=O)C(=O)c2ccccc21` ): 14 µM (inactive)

Recorded GI50 (compound `COc1ccc(NC(C)=O)c(C(=O)CCNC(C)=O)c1` ): > 100 µM (inactive)

Recorded GI50 (compound `O=C(O)C(Cl)(c1ccccc1)c1ccccc1` ): > 100 µM (inactive)

Recorded GI50 (compound C=C1CCCC2[C@](C)(CC3=C(Cl)C(=O)C=C(OC)C3=O)C(C)CC[C@]12C (some centres undefined) ): 3.39 µM (inactive)

Recorded GI50 (compound `C#C[C@]1(O)CC[C@H]2[C@@H]3CCC4=C/C(=N/NC(=O)c5cccc6cc7ccccc7nc56)CC[C@@H]4[C@H]3CC[C@@]21CC` ): 29.3 µM (inactive)

====

Tested on: OVCAR-8
methodDescription: NCI tumour cell line growth inhibition, 48 h
Activity calls are given as the source filed them. Rule as the data show it: active = GI50 up to about 1.1 µM and inactive = higher.
Assignment: determine reported GI50 for the given compounds.

Recorded GI50 (compound `NCCSc1nc2ccccc2s1` ): 43.2 µM (inactive)

Recorded GI50 (compound `c1ccc(CCNc2ccccn2)nc1` ): > 100 µM (inactive)

Recorded GI50 (compound `CCCCCCCC/C=C\CCCCCCCC(=O)NCCN(CCN)C(=O)CCCCCCC/C=C\CCCCCCCC` ): > 100 µM (inactive)

Recorded GI50 (compound N#CC(C#N)=Cc1ccc(C(O)P(=O)(O)O)cc1 (stereo unspecified) ): > 100 µM (inactive)

Recorded GI50 (compound `O=C1Nc2ccc(Br)cc2/C1=N/Nc1ccc([N+](=O)[O-])cc1` ): 14.4 µM (inactive)

Recorded GI50 (compound CC1(c2cccc(Cl)c2)CC(c2cccc(Cl)c2)=C(C#N)C(=C(C#N)C#N)N1 (stereo unspecified) ): 17.9 µM (inactive)
